Tested on: PPARa:RXRa (NR concentration 270 nM, RXRa partner concentration 90 nM)
protocol_notes: PBM binding z-score (relative to random genomic background probes); higher = stronger binding; sequences stand for … in GC…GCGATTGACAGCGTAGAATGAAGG

# entry_sequence, PBM binding z-score
measured = [
    ("AGTCAAAGTTCATCTAGGTAACGCAAGATATGCT", 4.83),
    ("CCTAGTTGGTCAAGAGGTCACACACCGGATATGA", 5.71),
    ("GCGAGCAGGCCATTTGGGTCACTCAATGACGGGC", 1.37),
    ("GGAACAAGGGCAAGTTGATAGCAGAGTTTGATGG", 0.929),
    ("CTCGAAAGGTCGTGCTCAGGTAAGTATACCAAAC", 5.08),
    ("CCTTACGGGACACTCCAGGTTATAGCATCGGAGT", 0.0174),
    ("CGTCCAAGGTCAATGCTAGGTCAGTGAGAGCATT", 5.13),
    ("CGAACTAGGTCAAAGGTCAAAGTCGAGCCAACCA", 7.47),
    ("ATAGACAGGTGAGTGAAGGTAACTCAGCTGGACG", 0.437),
    ("CAAACTAGGTCACGAAAGATCAAAGTCGAATGAC", 5.84),
    ("CCTAGCAGGCCAGGGTCACTGAAGCATTTCGCTT", 3.35),
    ("TCTCGGAGGACACGAAGGTCAGAGGTTTCCAGAG", 2.12),
    ("TCATAGAGGTAAAGGTGAAAGTCGAACGATATGA", 3.63),
    ("TAGCCTAGGTCAGATCGGGCAAGTATACGCTATA", 1.74),
    ("GCGATTGGGGCAAAGCAGGTTACCATAAGGTTGG", 1.11),
    ("TCATAGAGGTAAACAGGTGAAAGTCCGTAAGTTA", 2.14),
    ("AGAACGAGGGCACGCTGCGTTGATAGCAGAGTAG", 1.75),
    ("TCGAGAAGGTTAGGGGCATTCAGAATGGCGTCGA", 1.83),
    ("TCATATAGGTAAGTGCTAGGTGAAAGTCCGATCT", 0.896),
    ("ATACCAAGGTGATCTTGAGGTCGTTGATACTAAC", 1.91),
    ("GCTACTAGTTGAAAGGGCAACCGAATGATTCTCG", 2.62),
    ("CCTTACGGGGCACTGACAGGTTATAGCATTTGGA", 0.455),
    ("TCGAGTAGGTTAGTCGGGCCATTCAGCCAACATA", 0.324),
    ("CCTTACGGTTCAAGGTTATAGCACGGGTGGTACG", 2.53),
    ("TATAGTTGGTCAAAGGTCACACACTCGAAATGCG", 6.7),
    ("TAGCCTAGGTCATGCGGGCCAGTATCGTGTCGGC", 3.06),
]
